experimental-system: CRF1R
test-description: cell-based or functional assay
Ends that are not written are not given here.
Where CRF1R EC50 equals or exceeds 200 nM, the correct label is met; where it does not, the label is not met.

Use these answered entries as a reference point.
binder	qualitative-label
ZGPPISIDLPLELLRKMIEIEKQEKEKQQATTNARILARV (C-terminal amide) [SEQ ID NO 143]	met
ZGPPISIDLPNYLLRKMIEIEKQEKEKQQAANNRLLLDTI (C-terminal amide) [SEQ ID NO 64]	not met
ZGPPISIDLPTVLLRKMIEIEKQEKEKQQAANNRLLLDTI (C-terminal amide) [SEQ ID NO 46]	met

Test whether the binder IVLSLDVPIGLLQILIEIEKQEKEKQQAANNARILARV-NH2 [SEQ ID NO 166] records CRF1R EC50 of 200 nM or higher. met

Is the recorded value of CRF1R EC50 equal to or greater than 200 nM for this binder? ZGPPISIDLPQLLLRKMIEIEKQEKEKQQAANNRLLLDTI (C-terminal amide) [SEQ ID NO 196] met

Form field: CRF1R EC50 at least 200 nM? Entry: ZGPPISIDVPTYLLRILIEIEKQEKEKQQATTNARILARV (C-terminal amide) [SEQ ID NO 169] met

The values you see were collected from patent US20030148956A1.
